Attribute: KM
- test system: Factor X, P00742
- Sequence (P00742 whole entry, looked up): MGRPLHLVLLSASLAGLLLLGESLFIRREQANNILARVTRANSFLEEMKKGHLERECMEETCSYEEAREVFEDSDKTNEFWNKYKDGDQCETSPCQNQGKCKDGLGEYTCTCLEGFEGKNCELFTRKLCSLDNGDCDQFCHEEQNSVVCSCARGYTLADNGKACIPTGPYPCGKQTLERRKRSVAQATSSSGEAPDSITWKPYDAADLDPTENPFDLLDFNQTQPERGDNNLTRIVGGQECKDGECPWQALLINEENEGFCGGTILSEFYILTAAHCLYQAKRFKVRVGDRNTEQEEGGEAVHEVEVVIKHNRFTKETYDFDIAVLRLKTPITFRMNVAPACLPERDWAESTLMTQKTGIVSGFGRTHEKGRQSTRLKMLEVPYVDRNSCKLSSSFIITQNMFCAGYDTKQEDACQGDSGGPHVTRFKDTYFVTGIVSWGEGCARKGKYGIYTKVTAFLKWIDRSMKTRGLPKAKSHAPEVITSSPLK
Write it as a number; the unit µM goes unstated.

>  <protein>
FIXa-R338E/T343R/E410N (protein) chain 1: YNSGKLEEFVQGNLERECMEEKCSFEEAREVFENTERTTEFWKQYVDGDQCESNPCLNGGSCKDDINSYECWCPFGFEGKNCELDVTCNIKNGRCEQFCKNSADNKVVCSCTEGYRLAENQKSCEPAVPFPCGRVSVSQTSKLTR chain 2: VVGGEDAKPGQFPWQVVLNGKVDAFCGGSIVNEKWIVTAAHCVETGVKITVVAGEHNIEETEHTEQKRNVIRIIPHHNYNAAINKYNHDIALLELDEPLVLNSYVTPICIADKEYTNIFLKFGSGYVSGWGRVFHKGRSALVLQYLRVPLVDRATCLESTKFRIYNNMFCAGFHEGGRDSCQGDSGGPHVTEVEGTSFLTGIISWGEECAMKGKYGIYTKVSRYVNWIKNKTKLT

>  <KM [µM]>
0.0355

$$$$

Query protein follows.
Enquiry: I am curious: what KM value has been reported for FIXa-R318Y/R338E/R403E (protein) chain 1: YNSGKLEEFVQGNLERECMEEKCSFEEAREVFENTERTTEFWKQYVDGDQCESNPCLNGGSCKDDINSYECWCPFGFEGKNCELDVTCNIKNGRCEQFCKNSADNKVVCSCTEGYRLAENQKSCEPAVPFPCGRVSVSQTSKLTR chain 2: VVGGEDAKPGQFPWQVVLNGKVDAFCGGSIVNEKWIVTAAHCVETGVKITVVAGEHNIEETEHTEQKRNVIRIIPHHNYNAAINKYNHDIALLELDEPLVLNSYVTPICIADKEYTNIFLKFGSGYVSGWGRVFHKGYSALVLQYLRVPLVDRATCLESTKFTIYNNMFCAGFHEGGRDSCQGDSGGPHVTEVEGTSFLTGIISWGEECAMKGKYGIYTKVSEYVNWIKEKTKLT ?
Return: 0.0537
